protocol: Water Vapour Sorption isotherm (DVS), hygroscopicity acc. to Ph. Eur.
Assay type: physicochemical
experimental.setup: relative humidity range 0-80% rh, 25° C.
measurement.name: Water uptake levels (Water Vapour Sorption)

// solved cases for Water uptake levels (Water Vapour Sorption) follow
{"molecule": "Cc1cc(S(C)(=O)=O)c(S(C)(=O)=O)cc1C(=O)NC(=N)N [Sulfate-NF3]", "reported.result": "≤ 0.5 wt %"}
{"molecule": "Cc1cc(S(C)(=O)=O)c(S(C)(=O)=O)cc1C(=O)NC(=N)N [Succinate-NF1]", "reported.result": "≤ 0.2 wt %"}

In the following, a different molecule is considered.
Give reported Water uptake levels (Water Vapour Sorption) value for Cc1cc(S(C)(=O)=O)c(S(C)(=O)=O)cc1C(=O)NC(=N)N [Malonate-NF1]
≤ 1.0 wt %

Source: patent US10981864B2
